studyTarget: UniProt:Q07817
Sequence (Q07817 whole entry): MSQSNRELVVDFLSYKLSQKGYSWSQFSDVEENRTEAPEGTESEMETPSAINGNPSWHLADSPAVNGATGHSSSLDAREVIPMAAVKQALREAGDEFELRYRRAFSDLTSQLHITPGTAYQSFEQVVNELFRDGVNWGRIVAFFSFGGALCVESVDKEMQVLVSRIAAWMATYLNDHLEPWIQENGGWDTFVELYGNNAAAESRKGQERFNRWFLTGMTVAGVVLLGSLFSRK
methodSummary: 1D 1H-NMR binding assay; further: key: +++: Very Active; ++: Active; +: Mild; −: Weak
conditionSummary: Table 9

>  <compound>
Cc1cc2c(C(=O)c3ccccc3)c(O)c(O)cc2c(O)c1-c1c(C)cc2c(C(=O)c3ccccc3)c(O)c(O)cc2c1O [Compound VII]

>  <studyTarget>
UniProt:Q07817

>  <1D ^1H-NMR Binding Assay (BCL-XL)>
+

$$$$
>  <compound>
Cc1cc2c(C(=O)C(C)C)c(O)c(O)cc2c(O)c1-c1c(C)cc2c(C(=O)C(C)C)c(O)c(O)cc2c1O [Compound III]

>  <studyTarget>
UniProt:Q07817

>  <1D ^1H-NMR Binding Assay (BCL-XL)>
++

$$$$
>  <compound>
Cc1cc2c(C(=O)C3CCCC3)c(O)c(O)cc2c(O)c1-c1c(C)cc2c(C(=O)C3CCCC3)c(O)c(O)cc2c1O [Compound VI]

>  <studyTarget>
UniProt:Q07817

>  <1D ^1H-NMR Binding Assay (BCL-XL)>
+

$$$$
>  <compound>
Cc1cc2c(C(=O)CC(C)C)c(O)c(O)cc2c(O)c1-c1c(C)cc2c(C(=O)CC(C)C)c(O)c(O)cc2c1O [Compound IV]

>  <studyTarget>
UniProt:Q07817

>  <1D ^1H-NMR Binding Assay (BCL-XL)>
+

$$$$

Where these numbers come from: patent US8039668B2
